These measurements were taken from patent US20220387487A1.

tested on: FMC63; experiment: CD19 variant binding to anti-CD19 antibody FMC63 (score); settings: Table 1A, CD19 single mutants (positions of SEQ ID NO:2)
Sequence (as listed by the source): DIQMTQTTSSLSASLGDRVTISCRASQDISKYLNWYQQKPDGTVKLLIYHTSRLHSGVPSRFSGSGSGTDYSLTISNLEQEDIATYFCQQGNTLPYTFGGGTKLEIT
Sequence (as listed by the source): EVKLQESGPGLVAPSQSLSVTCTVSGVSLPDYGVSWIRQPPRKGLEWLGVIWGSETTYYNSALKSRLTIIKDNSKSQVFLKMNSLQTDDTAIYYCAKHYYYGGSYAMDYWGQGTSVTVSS
Recorded measurements of FMC63 Binding Score, one per entry
Observation Type: FMC63 Binding Score

V260S: CD19 variant (protein) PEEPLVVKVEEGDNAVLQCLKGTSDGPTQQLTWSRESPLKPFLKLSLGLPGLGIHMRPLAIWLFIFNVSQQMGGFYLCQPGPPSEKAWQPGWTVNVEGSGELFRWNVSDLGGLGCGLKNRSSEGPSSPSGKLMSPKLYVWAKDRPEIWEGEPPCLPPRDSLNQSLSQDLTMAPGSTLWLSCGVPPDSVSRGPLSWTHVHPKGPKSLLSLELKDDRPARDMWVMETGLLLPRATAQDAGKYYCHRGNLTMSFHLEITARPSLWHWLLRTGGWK: 5.8 ± .3
W264G: CD19 variant (protein) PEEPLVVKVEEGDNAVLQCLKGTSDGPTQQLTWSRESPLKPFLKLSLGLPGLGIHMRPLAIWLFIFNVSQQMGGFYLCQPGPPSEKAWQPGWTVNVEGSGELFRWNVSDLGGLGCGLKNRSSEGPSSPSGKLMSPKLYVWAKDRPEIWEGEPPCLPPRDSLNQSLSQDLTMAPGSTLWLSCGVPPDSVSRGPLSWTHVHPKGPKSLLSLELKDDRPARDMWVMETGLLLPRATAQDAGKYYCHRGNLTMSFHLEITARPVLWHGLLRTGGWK: 7.2 ± .3
